# Tested on: BA/F3 (EGFR D770_N771 insSVD T790M) cells
# ASSAY EXPLANATION: Ba/F3-EGFR-insSVD T790M cell survival assay (Cell Titer-Glo)
# Format: cell-based
# EXPERIMENTAL PARAMETERS: Ba/F3 EGFR-D770-N771ins_SVD, 48 h, Table 3b, Ba/F3 EGFR-insSVD T790M
RECORDED METRIC: log10 IC50 (log10 of the value in nM)
# log10 transformed; quantity=IC50; unit=nM

MOLECULE: C=CC(=O)N1CCn2nc(-c3ccc(F)cc3)c(-c3ccnc(NC(=O)C4CC4)c3)c2C1 [Example 7]
log10 IC50: 1.78
//
MOLECULE: C=CC(=O)N1CCn2nc(-c3ccc(Cl)cc3)c(-c3ccncc3)c2C1 [Example 3]
log10 IC50: 2.03
//
MOLECULE: CC(C)N(C)C/C=C/C(=O)N1CCn2nc(-c3ccc(F)cc3)c(-c3ccnc(NC(=O)C4CC4)c3)c2C1 [Example 6]
log10 IC50: 2.32

## Input Return reported log10 IC50. Input molecule: C=CS(=O)(=O)N1CCn2nc(-c3ccc(F)cc3)c(-c3ccncc3)c2C1 [Example 14]
## Output 2.99

## Input Return reported log10 IC50. Input molecule: C=CC(=O)N1CCn2nc(-c3ccc(F)cc3)c(-c3ccnc(N)c3)c2C1 [Example 10]
## Output 2.54

## Input Return reported log10 IC50. Input molecule: CC(C)N(C)C/C=C/C(=O)N1CCn2nc(-c3ccc(F)cc3)c(-c3ccncc3)c2C1 [Example 18]
## Output -0.66

## Input Return reported log10 IC50. Input molecule: C=CC(=O)N1CCn2nc(-c3ccc(F)cc3)c(-c3ccncc3)c2C1 [Example 1]
## Output 2.08

## Input Return reported log10 IC50. Input molecule: C=CC(=O)N1CCn2nc(-c3cccc(OC)c3)c(-c3ccncc3)c2C1 [Example 5]
## Output 2.06

====

# System: BA/F3 (insSVD) cells
# ASSAY EXPLANATION: Ba/F3-EGFR-insSVD cell survival assay (Cell Titer-Glo)
# Type: cell-based
# EXPERIMENTAL PARAMETERS: Mus musculus, BaF3, 48 h, Table 3a, cell survival, Cell Titer-Glo, with 10 ng/ml EGF, without IL-3
# Protocol: Cellular Data Description (WT, insSVD, insSVD T790M) 293T cells from ATCC were transfected with pBABEpuro expression constructs for WT EGFR or EGFR-insSVD, or EGFR-insSVD T790M, and pCL-Eco packaging vector using Fugene-6 transfection reagent from Promega. […] Cell viability was measured by adding 20 μL of Cell Titer-Glo Luminescent Cell Viability Reagent diluted 1:3 in PBS. […] Plates were incubated in low light conditions for 8-10 min and luminescence was measured.
compounds and their reported pIC50
Convention used: pIC50 is expressed as -log10 of the molar concentration.

COMPOUND: C=CC(=O)N1CCn2nc(-c3ccc(Cl)c(CC)c3)c(-c3ccncc3)c2C1 [Example 190]
pIC50: 6.76

COMPOUND: C=CC(=O)N1CCn2nc(-c3ccc(Cl)cc3F)c(-c3ccnc4[nH]cc(F)c34)c2C1 [Example 52]
pIC50: 7.45

COMPOUND: C[C@H]1Cn2nc(-c3ccc(Cl)cc3)c(-c3ccncc3)c2CN1C(=O)/C=C/CN(C)C [Example 245]
pIC50: 7.92

Now for the compound whose pIC50 we want.
## Input Return reported pIC50. Input compound: C=CC(=O)N1Cc2c(-c3ccncc3)c(-c3ccc(F)cc3)nn2CC1(C)C [Example 210]
## Output 6.26

====

# Test system: BA/F3 (insSVD) cells
# ASSAY EXPLANATION: Ba/F3-EGFR-insSVD cell survival assay (Cell Titer-Glo)
# Assay type: cell-based
# EXPERIMENTAL PARAMETERS: Mus musculus, BaF3, 48 h, Table 3a, cell survival, Cell Titer-Glo, with 10 ng/ml EGF, without IL-3
RECORDED METRIC: IC50 (nM)
Entry rule: numbers only, all in nM.

MOLECULE: C=CC(=O)N1CCn2nc(-c3ccc(Cl)cc3)c(-c3ccnc4[nH]cc(C)c34)c2C1
ASSAYED SYSTEM: BA/F3 (insSVD) cells
MEASUREMENT UNITS: nM
IC50: 63.5

MOLECULE: CN(C)C/C=C/C(=O)N1Cc2c(-c3ccncc3)c(-c3ccc(F)cc3)nn2C(CCO)C1 (racemic)
ASSAYED SYSTEM: BA/F3 (insSVD) cells
MEASUREMENT UNITS: nM
IC50: 308

MOLECULE: C=CC(=O)N1CCn2nc(-c3ccc(F)cc3)c(-c3ccnc4[nH]cc(C)c34)c2C1
ASSAYED SYSTEM: BA/F3 (insSVD) cells
MEASUREMENT UNITS: nM
IC50: 62.8

MOLECULE: C/C=C/C(=O)N1CCn2nc(-c3ccc(F)cc3)c(-c3ccncc3)c2C1
ASSAYED SYSTEM: BA/F3 (insSVD) cells
MEASUREMENT UNITS: nM
IC50: 3850

MOLECULE: CCN(CC)C/C=C/C(=O)N1CCn2nc(-c3ccc(F)cc3)c(-c3ccncc3)c2C1
ASSAYED SYSTEM: BA/F3 (insSVD) cells
MEASUREMENT UNITS: nM
IC50: 194

## Input Specify IC50 for `C=CC(=O)N1CCn2nc(-c3cc(Cl)ccc3F)c(-c3ccnc4[nH]cc(C)c34)c2C1` , system BA/F3 (insSVD) cells.
## Output 112

## Input Specify IC50 for C=CC(=O)N1Cc2c(-c3ccncc3)c(-c3ccc(OC)cc3)nn2CC1C (racemic) , system BA/F3 (insSVD) cells.
## Output 44.6

## Input Specify IC50 for C=CC(=O)N1Cc2c(-c3ccncc3)c(-c3ccc4sccc4c3)nn2C(C)C1 (racemic) , system BA/F3 (insSVD) cells.
## Output 6.82

## Input Specify IC50 for `C=CC(=O)N1CCn2nc(Nc3ccc(Cl)cc3F)c(-c3ccnc4[nH]cc(C)c34)c2C1` , system BA/F3 (insSVD) cells.
## Output 125

## Input Specify IC50 for `O=C(/C=C/CN1CCCC1)N1CCn2nc(-c3ccc(Cl)cc3)c(-c3ccncc3)c2C1` , system BA/F3 (insSVD) cells.
## Output 33.7

## Input Specify IC50 for CC1c2c(-c3ccncc3)c(-c3ccc(Cl)cc3F)nn2CCN1C(=O)/C=C/CN(C)C (racemic) , system BA/F3 (insSVD) cells.
## Output 168

## Input Specify IC50 for `C=CC(=O)N1CCn2nc(-c3ccc(Cl)cc3OC)c(-c3ccncc3)c2C1` , system BA/F3 (insSVD) cells.
## Output 635

## Input Specify IC50 for `C=CC(=O)N1CCn2nc(-c3ccc(C#N)cc3)c(-c3ccnc4[nH]cc(C)c34)c2C1` , system BA/F3 (insSVD) cells.
## Output 531

## Input Specify IC50 for `Cc1c[nH]c2nccc(-c3c(-c4cccc(C#N)c4)nn4c3CN(C(=O)/C=C/CN(C)C)CC4)c12` , system BA/F3 (insSVD) cells.
## Output 922

## Input Specify IC50 for C=C(F)C(=O)N1Cc2c(-c3ccncc3)c(-c3ccc(Cl)cc3F)nn2CC1C (racemic) , system BA/F3 (insSVD) cells.
## Output 126

## Input Specify IC50 for `C=CC(=O)N1CCn2nc(-c3ccc(F)c4ccccc34)c(-c3ccncc3)c2C1` , system BA/F3 (insSVD) cells.
## Output 214

## Input Specify IC50 for `C=CC(=O)N1CCn2nc(-c3cc4ccccc4cc3F)c(-c3ccncc3)c2C1` , system BA/F3 (insSVD) cells.
## Output 42

## Input Specify IC50 for CC(C)(C)OC(=O)N1CCCC1C#CC(=O)N1CCn2nc(-c3ccc(F)cc3)c(-c3ccncc3)c2C1 (racemic) , system BA/F3 (insSVD) cells.
## Output 1060

## Input Specify IC50 for `Cc1c[nH]c2nccc(-c3c(-c4cccc5ccoc45)nn4c3CN(C(=O)/C=C/CN(C)C)CC4)c12` , system BA/F3 (insSVD) cells.
## Output 557

## Input Specify IC50 for `CN(C)C/C=C/C(=O)N1CCn2nc(-c3ccccc3F)c(-c3ccncc3)c2C1` , system BA/F3 (insSVD) cells.
## Output 557

## Input Specify IC50 for `COC1CCN(C/C=C/C(=O)N2CCn3nc(-c4ccc(Cl)cc4)c(-c4ccncc4)c3C2)CC1` , system BA/F3 (insSVD) cells.
## Output 63.7

## Input Specify IC50 for `O=C(/C=C/C(F)F)N1CCn2nc(-c3ccc(Cl)cc3F)c(-c3ccncc3)c2C1` , system BA/F3 (insSVD) cells.
## Output 34

## Input Specify IC50 for `C=CC(=O)N1Cc2c(-c3ccncc3)c(-c3cccc(C#N)c3)nn2C[C@H]1C` , system BA/F3 (insSVD) cells.
## Output 86.5

## Input Specify IC50 for `C=CC(=O)N1CCn2nc(Nc3ccc(C(F)(F)F)cc3)c(-c3ccncc3)c2C1` , system BA/F3 (insSVD) cells.
## Output 4360

## Input Specify IC50 for `COc1ccc(-c2nn3c(c2-c2ccncc2)CN(C(=O)/C=C/CN(C)C)CC3)cc1Cl` , system BA/F3 (insSVD) cells.
## Output 679

## Input Specify IC50 for `C=CC(=O)N1CCn2nc(-c3ccc(OCC)cc3)c(-c3ccncc3)c2C1` , system BA/F3 (insSVD) cells.
## Output 980

## Input Specify IC50 for `C=CC(=O)N1CCn2nc(-c3ccc(Cl)c(F)c3)c(-c3ccncc3)c2C1` , system BA/F3 (insSVD) cells.
## Output 17.9
